# Test system: PPARa:RXRa (NR concentration 270 nM, RXRa partner concentration 90 nM)
# TEST_PROTOCOL: PBM binding z-score (relative to random genomic background probes); higher = stronger binding; sequences stand for … in GC…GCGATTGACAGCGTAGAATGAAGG
Note to self: values exactly at 2 are 1. So PBM binding z-score at or above 2 is 1, below is -1.

Consider the following illustrative entries.
- GCGGCTGGGGCATCAGCAGGTTACCATAACTTAA: -1
- ACTATTTGTTGAGACGAGGGCAACCGATAGGTTG: -1
- ACTACCAGGCCAAGGGTCACTCAAGATTAGTCCG: 1

Qu. Exam item: decide whether the reported PBM binding z-score for "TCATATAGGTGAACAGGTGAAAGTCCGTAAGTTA" is at least 2.
Ans. 1

====

# Tested on: PPARg:RXRa 90nM:30nM, anti-RXR (NR concentration 90 nM, RXRa partner concentration 30 nM)
# TEST_PROTOCOL: PBM binding z-score (relative to random genomic background probes); higher = stronger binding; sequences stand for … in GC…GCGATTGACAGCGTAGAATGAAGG
Note to self: values exactly at 1 are YES. So PBM binding z-score at or above 1 is YES, below is NO.

Consider the following illustrative entries.
- CAAACTAGGTCAAGAGATCAAAGTCCGCTTCCCG: YES
- AGCATGAGGTTACCAAAGATCAGGGAAACGCTTG: YES
- TCATATAGGTAAAGGTGAAAGCCGAACGATATGA: YES
- TCATATAAGTAATACAGGTGAAAGTCGGCATCTA: YES
- AGAACGAGGGCACGCTGAGTTGCTAGCAGAGTAG: NO

Qu. Exam item: decide whether the reported PBM binding z-score for "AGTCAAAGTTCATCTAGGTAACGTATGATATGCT" is at least 1.
Ans. YES

Qu. Exam item: decide whether the reported PBM binding z-score for "ATACCAAGGTGTTCGTGAGGTCGTTGATACTAAC" is at least 1.
Ans. NO

Qu. Exam item: decide whether the reported PBM binding z-score for "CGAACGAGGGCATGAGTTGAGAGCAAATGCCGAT" is at least 1.
Ans. NO

Qu. Exam item: decide whether the reported PBM binding z-score for "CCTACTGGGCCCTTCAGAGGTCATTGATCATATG" is at least 1.
Ans. NO

Qu. Exam item: decide whether the reported PBM binding z-score for "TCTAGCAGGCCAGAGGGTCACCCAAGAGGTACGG" is at least 1.
Ans. YES

Qu. Exam item: decide whether the reported PBM binding z-score for "TCAGCTAGGTCAACGATGGTCAGCTAATCTGCTA" is at least 1.
Ans. YES

====

Known PBM binding z-score of a selection of sequences
# Tested on: FXR:RXRa (NR concentration 270 nM, RXRa partner concentration 90 nM)
# TEST_PROTOCOL: PBM binding z-score (relative to random genomic background probes); higher = stronger binding; sequences stand for … in GC…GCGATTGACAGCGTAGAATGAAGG
Keep it simple and answer with nothing but the number.

- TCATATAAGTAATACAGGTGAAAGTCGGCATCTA: 1.33
- AGTCAAAGTCCAGGACGAGGTAACGTAAAGCACG: -0.263
- AGAACGAGGGTAATGAGTTGATAGCACGGGTGGC: -0.398
- TAGCCTAGGTCAGATCGGTCCAGTATACGCTATA: 1.8
- TCTCGGAGGACACGAAGGTCAGAGCATTCCAGAG: 1.29

Here is another sequence to look at.
Qu. State its PBM binding z-score: "CGTCAAAGTTCAACTAAGGAAACGTAAAGCACGC"
Ans. 7.38
